Where do these numbers come from? They come from patent US20250332157A1.

# assay notes: Forced degradation experiment of active ingredient (acid, alkali, oxidation, high temperature, light, high humidity), HPLC
# Assay type: physicochemical
# test conditions: High humidity destruction
property measured: Total Impurities (%)
Quick note: give the figure in %, leave out the unit.

Q: Sample CC[C@@H](c1ccccc1)N1Cc2cc3c(cc2C[C@H]1C(=O)N[C@@H](Cc1ccc(-c2ccnc(C)c2C)cc1)C(=O)O)OC[C@H](c1ccc(OCc2ccc(Cl)c(Cl)c2)cc1)O3 [OAD2] — what was its Total Impurities?
Ans: 0.68

* * *

# assay notes: Forced degradation experiment of active ingredient (acid, alkali, oxidation, high temperature, light, high humidity), HPLC
# Type: physicochemical
# test conditions: Light exposure destruction
property measured: Total Impurities (%)
Quick note: give the figure in %, leave out the unit.

Q: Sample `CC[C@@H](c1ccccc1)N1Cc2cc3c(cc2C[C@H]1C(=O)N[C@@H](Cc1ccc(-c2ccnc(C)c2C)cc1)C(=O)O)OC[C@H](c1ccc(OCc2ccc(Cl)c(Cl)c2)cc1)O3` — what was its Total Impurities?
Ans: 6.9
